The following variants are listed with their measured abundance fitness values.
B1: Dystrobrevin alpha, residues 235 to 294; numbered along this chain, Q9Y4J8 (parent)
chain: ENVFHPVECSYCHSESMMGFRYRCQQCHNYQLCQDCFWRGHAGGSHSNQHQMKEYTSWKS

variants of: B1; assay: abundance fitness (aPCA) (normalised: wild type 0, dead -1); higher = more abundant; growth selection in yeast, the domain comes from the species named; details: Homo sapiens

{"MUTANT_LABEL": "H13C", "abundance fitness": -0.176}
{"MUTANT_LABEL": "C33F", "abundance fitness": -0.625}
{"MUTANT_LABEL": "C9F", "abundance fitness": -1.25}
{"MUTANT_LABEL": "S47G", "abundance fitness": -0.22}
{"MUTANT_LABEL": "C24S", "abundance fitness": -0.851}
{"MUTANT_LABEL": "Q31Y", "abundance fitness": -0.034}
{"MUTANT_LABEL": "C33R", "abundance fitness": -0.675}
{"MUTANT_LABEL": "Q26V", "abundance fitness": 0.273}
{"MUTANT_LABEL": "S10C", "abundance fitness": -0.018}
{"MUTANT_LABEL": "V7Y", "abundance fitness": -0.161}
{"MUTANT_LABEL": "Q51C", "abundance fitness": -0.148}
{"MUTANT_LABEL": "H13R", "abundance fitness": -0.061}
{"MUTANT_LABEL": "Q49S", "abundance fitness": 0.029}
{"MUTANT_LABEL": "C12R", "abundance fitness": -0.768}
{"MUTANT_LABEL": "W38F", "abundance fitness": 0.099}
{"MUTANT_LABEL": "S47M", "abundance fitness": -0.322}
{"MUTANT_LABEL": "K53L", "abundance fitness": -0.108}
{"MUTANT_LABEL": "S45C", "abundance fitness": 0.06}
